Test system: K-562
experiment description: Cell proliferation inhibition (CellTiter-Glo), K-562 cells
Assay type: cell-based
measurement conditions: Homo sapiens, K562, 96 h; K-562 (BCR-ABL), Day 4; read-out: K-562 IC50 μM (Day 4)
measured endpoint: IC50

The measured IC50 that C=CC(=O)N1CCC(N2CCN(C(=O)Nc3ccc(-c4cc5c(N6CCOCC6)ncnc5[nH]4)cc3)CC2)CC1 [Compound B0700-613] showed for K-562 is 6.04 µM

Field IC50 (system: K-562) for entry C=CC(=O)N1CC(N2CCCC(CNS(=O)(=O)N3CCN(c4nc5c(N6CCOCC6)ncnc5[nH]4)CC3)C2)C1 (stereo not drawn) [Compound B0700-512] = 5.18 µM

Record for CN(C/C=C/C(=O)N[C@@H]1CCCN(Cc2ccnc(C(=O)Nc3ccc(-c4cc5c(N6CCOCC6)ncnc5[nH]4)cc3)c2)C1)C1CC1 [Compound B0700-524] under target or system K-562: IC50 reported as > 10 µM

Lab entry: K-562 assay, molecule C=CC(=O)N[C@@H]1CCCN(Cc2ccnc(C(C)Nc3ccc(-c4cc5c(N6CCOCC6)ncnc5[nH]4)cc3)c2)C1 (stereo partly drawn) [Compound B0700-514] , IC50 = > 10 µM

Result for Cc1cc(C)n2c1C=C1C=CC(CCC(=O)NCCCCN(C)C/C=C/C(=O)N[C@@H]3CCCN(Cc4ccnc(C(=O)Nc5ccc(-c6cc7c(N8CCOCC8)ncnc7[nH]6)cc5)c4)C3)=[N+]1[B-]2(F)F [Compound B0700-503] , tested on K-562, IC50: 2.51 µM

Given the molecule C=CC(=O)N[C@@H]1CCCN(Cc2ccnc(C(=O)Nc3ccc(-c4cc5c(N6CCC(C)(O)CC6)ncnc5[nH]4)cc3)c2)C1 [Compound B0700-569] and test system K-562, the measured IC50 is > 10 µM

Lab note: molecule C=CS(=O)(=O)N[C@@H]1CCCN(Cc2ccnc(C(=O)Nc3ccc(-c4cc5c(N6CCOCC6)ncnc5[nH]4)cc3)c2)C1 [Compound B0700-333] tested on K-562; recorded IC50 was 0.074 µM

// IC50 (K-562) for C=CC(=O)N[C@@H]1CCCN(Cc2ccnc(C(=O)Nc3ccc(-c4cc5c(N6CCOCC6)ncnc5[nH]4)cc3F)c2)C1 [Compound B0700-549] = > 10 µM

So the reported IC50 for O=C(/C=C/Cc1cnc[nH]1)N[C@@H]1CCCN(Cc2ccnc(C(=O)Nc3ccc(-c4cc5c(N6CCOCC6)ncnc5[nH]4)cc3)c2)C1 [Compound B0700-523] , on K-562, turned out to be > 10 µM

Query C=CC(=O)NC1CN(c2ccnc(CC(=O)Nc3ccc(-c4cc5c(N6CCOCC6)ncnc5[nH]4)cc3)n2)C1 [Compound B0700-323] on K-562; IC50 returned: > 10 µM

Fill in: K-562 IC50 for C=CC(=O)N[C@@H]1CCCN(c2cccc([C@@H](C)S(=O)(=O)Nc3ccc(-c4cc5c(N6CCOCC6)ncnc5[nH]4)cc3)c2)C1 [Compound B0700-546] = > 10 µM

Simply: C=CC(=O)N[C@@H]1CCCN(Cc2cccc(S(=O)(=O)Nc3ccc(-c4nc5c(N6CCOCC6)ncnc5s4)cc3)c2)C1 [Compound B0700-532] , K-562, IC50 = > 10 µM

Query C=CC(=O)N[C@@H]1CCCN(Cc2ccnc(C(=O)Nc3ccc(-c4cc5c(C67CCOCC6C7)ncnc5[nH]4)cc3)c2)C1 (stereo partly drawn) [Compound B0700-706] on K-562; IC50 returned: 1.48 µM

# [2H]C([2H])=C([2H])C(=O)N[C@@H]1CCCN(Cc2ccnc(C(=O)Nc3ccc(-c4cc5c(N6CCOCC6)ncnc5[nH]4)cc3)c2)C1 [Compound B0700-557] with K-562: IC50 is 0.997 µM

Let me check: C=CC(=O)N[C@@H]1CCCN(C(=O)c2ccnc(CNc3ccc(-c4cc5c(N6CCOCC6)ncnc5[nH]4)cc3)c2)C1 [Compound B0700-561] , system K-562, measured IC50 is > 10 µM

Form field, IC50 with K-562, item C=CC(=O)N[C@@H]1CCCN(c2cccc(C(C)S(=O)(=O)Nc3ccc(-c4cc5c(N6CCOCC6)ncnc5[nH]4)cc3)c2)C1 (stereo partly drawn) [Compound B0700-545] : > 10 µM

The reported K-562 IC50 of C=CC(=O)N[C@@H]1CCCN(Cc2ccnc(C(=O)NC3CCC(c4cc5c(N6CCOCC6)ncnc5[nH]4)CC3)c2)C1 (stereo partly drawn) [Compound B0700-526] is > 10 µM

The molecule C=CC(=O)N[C@@H]1CCCN(Cc2ccnc(C(=O)Nc3ccc(-c4[nH]c5ncnc(N6CCOCC6)c5c4C)cc3)c2)C1 [Compound B0700-528] on K-562: IC50 was 1.18 µM
